Each recorded value in this set is attributed to patent US10774074B2.

Target: human alpha2C receptors (Homo sapiens, UniProt P18825)
Construct: host or cells: CHO cells, cotransfected with pCEP-Gα16
Sequence (P18825 whole entry): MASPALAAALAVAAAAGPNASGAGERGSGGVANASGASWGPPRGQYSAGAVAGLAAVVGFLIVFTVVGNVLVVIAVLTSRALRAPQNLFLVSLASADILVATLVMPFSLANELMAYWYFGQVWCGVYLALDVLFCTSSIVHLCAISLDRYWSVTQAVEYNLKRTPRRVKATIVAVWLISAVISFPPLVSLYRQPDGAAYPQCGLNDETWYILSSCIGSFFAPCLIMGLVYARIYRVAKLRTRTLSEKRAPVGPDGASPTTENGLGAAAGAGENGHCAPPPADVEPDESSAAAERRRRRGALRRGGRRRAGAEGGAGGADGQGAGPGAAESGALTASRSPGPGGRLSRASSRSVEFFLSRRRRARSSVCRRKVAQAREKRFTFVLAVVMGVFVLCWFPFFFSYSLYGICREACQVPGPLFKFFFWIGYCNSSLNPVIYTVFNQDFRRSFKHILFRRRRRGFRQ
Assay: Determination of alpha2C antagonistic activity in vitro (FLIPR calcium assay, CHO cells)
Assay type: cell-based
Conditions: Kb calculated with the Cheng-Prusoff equation from IC50; adrenaline as agonist; CHO cells, human alpha2C; read-out: Alpha 2C Adrenaline Kb
Structures can show the parent of a compound that is named as a salt.
readout: Kb (nM)

These recorded examples may help you get a feel for the data.
• CCOC(=O)c1c(N2CCN(C[C@H]3COc4ccccc4O3)CC2)nn(C)c1C [Compound of example 12] = 2.13
• Cc1c(N2CCCC2=O)c(N2CCN(C[C@H]3COc4ccccc4O3)CC2)nn1C [Compound of example 14] = 0.29
• c1ccc(-n2nccc2N2CCN(C[C@H]3COc4ccccc4O3)CC2)nc1 [Compound of example 10] = 1.14
• CC1CCN(c2nsnc2N2CCN(C[C@H]3COc4ccccc4O3)CC2)C1=O (stereo partly shown) [Compound of example 21] = 0.38

[1] Cc1c(N2CCC2=O)c(N2CCN(C[C@H]3COc4ccccc4O3)CC2)nn1C [Compound of example 4]
[2] c1ccc(COc2ncccc2Nc2nsnc2N2CCN(C[C@H]3COc4ccccc4O3)CC2)cc1 [Compound of example 37, hydrochloride]
[3] CN(C)C(=O)c1nsnc1N1CCN(C[C@H]2COc3ccccc3O2)CC1 [Compound of example 34]
[4] O=C1NCCN1c1nnc(N2CCN(C[C@H]3COc4ccccc4O3)CC2)s1 [Compound of example 25]
*Q* Which order do these items take when sorted by rising Kb? List them. Quick reminder: the answer is the labels in the order asked.
*A* 1, 3, 4, 2
(1: 0.13 nM, 3: 0.92 nM, 4: 28.4 nM, 2: 73.1 nM)

---

Biological target: UniProtKB P18825
Test: Determination of alpha2C antagonistic activity in vitro (FLIPR calcium assay, CHO cells)
Settings: antagonism of adrenaline stimulation; CHO cells stably transfected with human alpha2C receptor and Gα16; intracellular calcium (FLIPR); read-out: Alpha 2C Adrenaline IC50
readout: IC50 (nM)

Example entries begin here.
• Cc1c(N2CCOC2=O)c(N2CCN(C[C@H]3COc4ccccc4O3)CC2)nn1C = 0.1
• Cc1nsc(N2CCN(C[C@H]3COc4ccccc4O3)CC2)c1N1CCCC1=O = 0.17
• Cc1cc(N2CCN(C[C@H]3COc4ccccc4O3)CC2)n(-c2ccccn2)n1 = 0.23
• Cc1c(N2CCN(C)C2=O)c(N2CCN(C[C@H]3COc4ccccc4O3)CC2)nn1C = 0.17
• O=C1OCCN1c1nsnc1N1CCN(C[C@H]2COc3ccccc3O2)CC1 = 18.5

[A] Cc1c(N2CCCC2=O)c(N2CCN(C[C@H]3COc4ccccc4O3)CC2)nn1C
[B] O=C1NCCN1c1nnc(N2CCN(C[C@H]3COc4ccccc4O3)CC2)s1
*Q* Hi there! Just curious which has the higher IC50 between A and B . Refer to your chosen item by its label in the answer.
*A* B
(B: 2.86 nM, A: 0.03 nM)

---

Target: human alpha2C receptors (Homo sapiens)
Construct: host or cells: CHO cells, cotransfected with pCEP-Gα16
Assay: Determination of alpha2C antagonistic activity in vitro (FLIPR calcium assay, CHO cells)
Assay type: cell-based
Conditions: Kb calculated with the Cheng-Prusoff equation from IC50; adrenaline as agonist; CHO cells, human alpha2C; read-out: Alpha 2C Adrenaline Kb
readout: Kb (nM)

The following compounds have reported results that may help.
- O=C1CCCN1c1ncsc1N1CCN(C[C@H]2COc3ccccc3O2)CC1: 0.394
- COCc1c(N2CCN(C[C@H]3COc4ccccc4O3)CC2)nn(C)c1C: 1.62

[A] NC(=O)c1nsnc1N1CCN(C[C@H]2COc3ccccc3O2)CC1
[B] O=C1OCCN1c1nsnc1N1CCN(C[C@H]2COc3ccccc3O2)CC1
[C] Cc1cc(N2CCN(C[C@H]3COc4ccccc4O3)CC2)n(-c2ccccn2)n1
*Q* Ascending sort, Kb. Please list the labels in the order you were asked to rank them.
*A* C, B, A
(C: 2.28 nM, B: 183 nM, A: 1650 nM)
